# Test method notes: In vitro plasma protein binding (PPB)
# Format: in vitro ADME
# Conditions used: percentage of free/unbound compound
Experimental readout: DMPK-invitro-PPB (Mouse Unbound) [%] (%)

> print(dat)
                                    compound  number
 1  COc1nc2nc(C)nc(N[C@H](C)c3cccc(C(F)(F)[C@@H](C)O)c3)c2cc1C1(C#N)CC1 [Compound 366]    1.32
 2  COc1nc2ncnc(N[C@H](C)c3cccc(C(F)F)c3F)c2cc1N1CCN(C(C)C)CC1 [Compound 316]    9.83
 3  COc1nc2nc(C)nc(N[C@H](C)c3cccc(C(C)(F)F)c3F)c2cc1C1CCS(=O)(=O)CC1 [Compound 150]    2.65
 4  COc1nc2nc(C)nc(N[C@H](C)c3cccc(C(F)F)c3F)c2cc1N1CCN(C(C)C)CC1 [Compound 109]    3.51
 5  COc1nc2ncnc(N[C@H](C)c3cccc(C(F)(F)F)c3F)c2cc1N1CCS(=O)(=O)CC1 [Compound 308]    2.91
 6  COc1nc2ncnc(N[C@H](C)c3cccc(C(F)(F)F)c3F)c2cc1C1CCS(=O)(=O)CC1 [Compound 375]    2.67
 7  COc1nc2nc(C)nc(N[C@H](C)c3cccc(C(F)(F)F)c3C)c2cc1C1CCS(=O)(=O)CC1 [Compound 118]    0.31
 8  COc1nc2nc(C)nc(N[C@H](C)c3cccc(C(F)(F)F)c3F)c2cc1N1CCS(=O)(=O)CC1 [Compound 305]    1.24
 9  CCN1CCC(c2cc3c(N[C@H](C)c4cccc(C(F)(F)F)c4C)nc(C)nc3nc2OC)CC1 [Compound 351]    0.22
10  COc1nc2nc(C)nc(N[C@H](C)c3cccc(C(F)(F)F)c3F)c2cc1C1CCN(C(C)C)CC1 [Compound 287]    0.39
11  COc1nc2nc(C)nc(N[C@H](C)c3cccc(C(F)F)c3F)c2cc1N1CCS(=O)(=O)CC1 [Compound 131]    4.01
12  COc1nc2ncnc(N[C@H](C)c3cccc(C(F)(F)F)c3F)c2cc1C1CCN(C2CCOCC2)CC1 [Compound 164]     1.6
13  COc1nc2nc(C)nc(N[C@H](C)c3cccc(C(F)(F)F)c3F)c2cc1N1CCN(C(C)C)CC1 [Compound 211]    0.41
14  C[C@@H](Nc1ncnc2nc(Cl)c(C3(C#N)CC3)cc12)c1cccc(C(F)(F)F)c1F [Compound 354]    0.52
15  COc1nc2nc(C)nc(N[C@H](C)c3cccc(C(F)(F)F)c3C)c2cc1N1CCN(C2CCOCC2)CC1 [Compound 378]    0.14
16  COc1nc2ncnc(N[C@H](C)c3cccc(C(F)(F)C(C)(C)O)c3)c2cc1C1(C#N)CC1 [Compound 355]    0.89
17  COc1nc2ncnc(N[C@H](C)c3cccc(C(F)(F)F)c3C)c2cc1N1CCN(C2CCOCC2)CC1 [Compound 160]    1.05
18  COc1nc2nc(C)nc(N[C@H](C)c3cccc(C(F)(F)C(C)(C)O)c3F)c2cc1N1CCN(C(C)C)CC1 [Compound 322]    6.33
19  COc1nc2ncnc(N[C@H](C)c3cccc(C(F)(F)F)c3F)c2cc1N1CCN(C(C)C)CC1 [Compound 159]    3.43
20  COc1nc2ncnc(N[C@H](C)c3cccc(C(F)(F)F)c3C)c2cc1C1CCN(C2CCOCC2)CC1 [Compound 374]    0.45
21  COc1nc2ncnc(N[C@H](C)c3cccc(C(F)(F)F)c3F)c2cc1C1CCN(C(C)C)CC1 [Compound 162]    2.19
22  COc1nc2nc(C)nc(N[C@H](C)c3cccc(C(F)(F)[C@@H](C)O)c3F)c2cc1C1(C#N)CC1 [Compound 332]     0.3
23  COc1nc2ncnc(N[C@H](C)c3cccc(C(F)(F)[C@@H](C)O)c3)c2cc1C1(C#N)CC1 [Compound 264]    4.94
24  COc1nc2ncnc(N[C@H](C)c3cccc(C(F)(F)C(C)(C)O)c3F)c2cc1N1CCN(C(C)C)CC1 [Compound 273]   12.22
25  COc1nc2ncnc(N[C@H](C)c3cccc(C(F)(F)F)c3C)c2cc1C1CCN(C(C)C)CC1 [Compound 348]    1.03
26  COc1nc2nc(C)nc(N[C@H](C)c3cccc(C(F)(F)C(C)(C)O)c3)c2cc1N1CCN(C(C)C)CC1 [Compound 325]    12.8
27  Cc1nc(N[C@H](C)c2cccc(C(F)(F)F)c2F)c2cc(C3(C#N)CC3)c(Cl)nc2n1 [Compound 300]    0.47
28  CCN1CCC(c2cc3c(N[C@H](C)c4cccc(C(F)(F)F)c4C)ncnc3nc2OC)CC1 [Compound 353]    0.74
29  COc1nc2nc(C)nc(N[C@H](C)c3cccc(C(F)(F)F)c3F)c2cc1C1CCS(=O)(=O)CC1 [Compound 120]    0.73
30  COc1nc2ncnc(N[C@H](C)c3cccc(C(F)(F)F)c3C)c2cc1N1CCN(C(C)C)CC1 [Compound 376]    0.91

* * *

# Measured target: SOS1 (Homo sapiens (Human), UniProt Q07889)
# Sequence (Q07889 564-1049): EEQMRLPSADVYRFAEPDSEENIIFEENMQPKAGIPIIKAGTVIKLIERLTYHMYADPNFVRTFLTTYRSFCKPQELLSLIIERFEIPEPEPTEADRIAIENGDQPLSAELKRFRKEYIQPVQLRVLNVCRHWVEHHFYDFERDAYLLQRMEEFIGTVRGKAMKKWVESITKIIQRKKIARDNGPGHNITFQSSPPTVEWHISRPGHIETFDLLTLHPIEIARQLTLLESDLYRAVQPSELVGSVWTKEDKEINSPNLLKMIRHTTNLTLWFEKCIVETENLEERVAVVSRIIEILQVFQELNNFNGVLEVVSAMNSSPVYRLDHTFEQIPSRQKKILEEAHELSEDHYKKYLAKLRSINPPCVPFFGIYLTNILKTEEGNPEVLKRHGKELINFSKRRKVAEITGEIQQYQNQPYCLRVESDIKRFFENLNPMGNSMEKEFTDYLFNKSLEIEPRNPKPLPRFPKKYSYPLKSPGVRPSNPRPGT
# Test method notes: Ras-SOS interaction assay (HTRF)
# Format: biochemical
# Conditions used: K-RasG13D utilized, read-out: IC50 inhibition of SOS
pIC50: −log10 of the molar value.
Each entry below carries its recorded pIC50.
Experimental readout: pIC50

> print(dat)
                                    molecule  experimental.readout        result
 1  C[C@H](O)C(F)(F)c1cccc([C@@H](C)Nc2ncnc3nc(Cl)c(C4(C#N)CC4)cc23)c1 [Compound 265]                 pIC50        > 7.00
 2  COc1nc2nc(C)nc(N[C@H](C)c3cccc(C(F)(F)CCC4CNC4)c3F)c2cc1C1(C#N)CC1 [Compound 172]                 pIC50        > 7.00
 3  Cc1nc(N[C@H](C)c2cccc(C(F)F)c2F)c2cc(C3CCN(C)CC3)c(OC3CNC3)nc2n1 [Compound 253]                 pIC50        > 7.00
 4  CNCCOc1nc2nc(C)nc(N[C@H](C)c3cccc(C(F)F)c3F)c2cc1N1CCN(C(C)C)CC1 [Compound 406]                 pIC50        > 7.00
 5  COc1nc2ncnc(N[C@H](C)c3cccc(C(F)(F)F)c3C)c2cc1N1CCN(C(C)C)CC1 [Compound 376]                 pIC50        > 7.00
 6  Cc1nc(N[C@H](C)c2cccc(C(F)F)c2F)c2cc(C3CCN(C)CC3)c(OCCN(C)C)nc2n1 [Compound 334]                 pIC50        > 7.00
 7  COc1nc2ncnc(N[C@H](C)c3cccc(C(F)(F)C4CN(C(C)C)C4)c3F)c2cc1C1CCS(=O)(=O)CC1 [Compound 283]                 pIC50        > 7.00
 8  COc1nc2nc(C)nc(N[C@H](C)c3cccc(C(F)(F)C(C)(C)OC4CNC4)c3F)c2cc1N1CCN(C(C)C)CC1 [Compound 243]                 pIC50        > 7.00
 9  Cc1nc(N[C@H](C)c2cccc(C(F)F)c2F)c2cc(C3(C#N)CC3)c(OC3CCOCC3)nc2n1 [Compound 403]                 pIC50  6.00 to 7.00
10  Cc1nc(N[C@H](C)c2cccc(C(F)F)c2F)c2cc(N3CCN(C(C)C)CC3)c(NC3COC3)nc2n1 [Compound 192]                 pIC50        > 7.00
11  COc1nc2nc(C)nc(N[C@H](C)c3cccc(C(F)F)c3F)c2cc1N1CCS(=O)(=O)CC1 [Compound 131]                 pIC50        > 7.00
12  CCN1CCN(c2cc3c(N[C@H](C)c4cccc(C(F)F)c4F)nc(C)nc3nc2NC2COC2)CC1 [Compound 188]                 pIC50        > 7.00
13  COc1nc2nc(C)nc(N[C@H](C)c3cccc(C(F)(F)CCC4CN(C(=O)OC(C)(C)C)C4)c3F)c2cc1C1(C#N)CC1 [Compound 208]                 pIC50  6.00 to 7.00
14  COc1nc2nc(C)nc(N[C@H](C)c3cccc(C(F)(F)F)c3C)c2cc1C1CCN(C)CC1 [Compound 380]                 pIC50        > 7.00
15  Cc1c([C@@H](C)Nc2ncnc3nc(Cl)c(C4CCS(=O)(=O)CC4)cc23)cccc1C(F)(F)F [Compound 260]                 pIC50        > 7.00
